# methodNotes: chemical genetic growth profiling, strain panel (AID 1159580);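 also: tested at 20 µM; growth read once vehicle control cultures reached saturation at 30 °C; 1 = growth at the plate median or of vehicle wells; lower values mean less growth of the strain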
# setupConditions: S. cerevisiae deletion strains, growth OD, locus YDR159W, strain sac3
The campaign covered roughly 5,500 compounds. About 2,000 (36%) were called active. Inconclusive results (about 18%) are left out. Rule as the data show it: active = normalized growth mostly below about 0.91 (no sharp cut-off); inconclusive = no clear call, values can overlap the other calls; inactive = mostly above about 0.92. The list shows a part of the results.
Outcomes you can answer with include only these: 1 (active), -1 (inactive)

// return assay outcome for COc1ccc(-c2cc(C(F)F)nn2-c2ccc(S(N)(=O)=O)cc2)cc1F
-1

Per the records of this test, what outcome belongs to O=C1CN(/N=C\c2ccc([N+](=O)[O-])o2)C(=O)N1 ?
-1

What classification did CC[C@@H](C(=O)[C@@H](C)[C@@H](O)[C@H](C)[C@@H]1O[C@@H]([C@@H](CC)C(=O)O)CC[C@@H]1C)[C@H]1OC2(C=C[C@@H](O)[C@]3(CC[C@@](C)([C@H]4CC[C@](O)(CC)[C@H](C)O4)O3)O2)[C@H](C)C[C@@H]1C (stereo not given in full) end up with in this test?
-1

// return assay outcome for O=C(NC(=O)c1c(F)cccc1F)Nc1cc(Cl)c(OC(F)(F)C(F)C(F)(F)F)cc1Cl (stereo not given)
-1

How was CCOC(=O)C(C)(N)Cc1ccc(O)c(O)c1 (stereo not given) classified in this test?
-1

Called result for O=C1OCCN1/N=C\c1ccc([N+](=O)[O-])o1
-1

Please state the recorded outcome for this compound: CC1=C(/C=C/C(C)=C/C=C/C(C)=C\C(=O)O)C(C)(C)CCC1
-1

Dear colleague, could you share the recorded outcome for O=C(O)c1ccc2c(c1)OCO2 when you have a moment?
-1
